Target: Beta-secretase 1 (Homo sapiens)
Sequence (P56817 whole entry): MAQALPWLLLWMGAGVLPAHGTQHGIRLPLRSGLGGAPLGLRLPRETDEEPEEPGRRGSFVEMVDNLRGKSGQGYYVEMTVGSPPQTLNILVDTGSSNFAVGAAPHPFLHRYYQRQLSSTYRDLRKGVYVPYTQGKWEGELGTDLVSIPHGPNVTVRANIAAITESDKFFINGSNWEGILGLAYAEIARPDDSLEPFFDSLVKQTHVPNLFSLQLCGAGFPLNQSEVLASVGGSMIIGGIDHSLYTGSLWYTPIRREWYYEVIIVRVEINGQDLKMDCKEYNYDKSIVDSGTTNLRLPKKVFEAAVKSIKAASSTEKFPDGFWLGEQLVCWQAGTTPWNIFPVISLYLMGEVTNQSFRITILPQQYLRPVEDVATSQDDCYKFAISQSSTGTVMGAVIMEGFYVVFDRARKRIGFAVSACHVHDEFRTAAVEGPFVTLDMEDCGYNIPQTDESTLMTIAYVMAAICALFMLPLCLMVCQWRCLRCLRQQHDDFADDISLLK
Assay: Inhibition of human recombinant BACE1 at 0.2 uM
parameter: inhibition (%)
# unit: % | format: bare number

Observe how each entry below is paired with its result.
{"input-smiles": "CC(C)C[C@H](NC(=O)[C@@H](NC(=O)[C@@H](N)CNC(=O)c1cc(O)ccc1O)C(C)C)C(=O)N[C@@H](Cc1ccccc1)[C@@H](O)C(=O)Nc1cccc(-c2nn[nH]n2)c1", "subject-of-test": "Beta-secretase 1 (Homo sapiens)", "parameter": "inhibition", "units": "%", "numeric-readout": 93}
{"input-smiles": "CC(C)[C@H](NC(=O)[C@@H](N)CNC(=O)c1[nH]c(=O)[nH]c(=O)c1F)C(=O)N[C@@H](CC1CCCCC1)C(=O)N[C@@H](Cc1ccccc1)[C@@H](O)C(=O)Nc1cccc(-c2nn[nH]n2)c1", "subject-of-test": "Beta-secretase 1 (Homo sapiens)", "parameter": "inhibition", "units": "%", "numeric-readout": 97}
{"input-smiles": "CC(C)[C@H](NC(=O)[C@@H](N)CNC(=O)c1cc(O)ccc1O)C(=O)N[C@@H](CC1CCCCC1)C(=O)N[C@@H](Cc1ccccc1)[C@@H](O)C(=O)Nc1cccc(-c2nn[nH]n2)c1", "subject-of-test": "Beta-secretase 1 (Homo sapiens)", "parameter": "inhibition", "units": "%", "numeric-readout": 92}

GET /value?item= `CC(C)C[C@H](NC(=O)[C@@H](NC(=O)[C@@H](N)CNC(=O)c1cccc(O)c1)C(C)C)C(=O)N[C@@H](Cc1ccccc1)[C@@H](O)C(=O)Nc1cccc(C(=O)O)c1` &field=inhibition returns 49

So, `CC(C)C[C@H](NC(=O)[C@@H](NC(=O)[C@@H](N)CNC(=O)c1cc(O)nc(O)n1)C(C)C)C(=O)N[C@@H](Cc1ccccc1)[C@@H](O)C(=O)Nc1cccc(C(=O)O)c1` ? Its inhibition was 54

Record `CC(C)C[C@H](NC(=O)[C@@H](NC(=O)[C@@H](N)CNC(=O)c1ccc(O)cc1O)C(C)C)C(=O)N[C@@H](Cc1ccccc1)[C@@H](O)C(=O)Nc1cccc(C(=O)O)c1` . Reported inhibition: 59

Measured inhibition of `CC(C)C[C@H](NC(=O)[C@@H](NC(=O)[C@@H](N)CNC(=O)c1nc(O)nc(O)c1I)C(C)C)C(=O)N[C@@H](Cc1ccccc1)[C@@H](O)C(=O)Nc1cccc(C(=O)O)c1` : 72

In plain terms, `CC(C)C[C@H](NC(=O)[C@@H](NC(=O)[C@@H](N)CNC(=O)c1nn[nH]n1)C(C)C)C(=O)N[C@@H](Cc1ccccc1)[C@@H](O)C(=O)Nc1cccc(-c2nn[nH]n2)c1` has a documented inhibition of 98

// recorded inhibition for `CC(C)C[C@H](NC(=O)[C@@H](NC(=O)[C@@H](N)CNC(=O)c1cc(O)ccc1O)C(C)C)C(=O)N[C@@H](Cc1ccccc1)[C@@H](O)C(=O)Nc1cccc(C(=O)O)c1` : 84

For `CC(C)C[C@H](NC(=O)[C@@H](NC(=O)[C@@H](N)CNC(=O)c1nc(O)nc(O)c1F)C(C)C)C(=O)N[C@@H](Cc1ccccc1)[C@@H](O)C(=O)Nc1cccc(C(=O)O)c1` the compound record lists inhibition as 82

inhibition for `CC(C)[C@H](NC(=O)[C@@H](N)CNC(=O)c1nn[nH]n1)C(=O)N[C@@H](CC1CCCCC1)C(=O)N[C@@H](Cc1ccccc1)[C@@H](O)C(=O)Nc1cccc(-c2nn[nH]n2)c1` is 98

Lookup result for `CC(C)C[C@H](NC(=O)[C@@H](NC(=O)[C@@H](N)CNC(=O)c1cc(O)cc(O)c1)C(C)C)C(=O)N[C@@H](Cc1ccccc1)[C@@H](O)C(=O)Nc1cccc(C(=O)O)c1` ; measured inhibition: 60

Where these numbers come from: ChEMBL document CHEMBL1145305
